Parameter DILI_severity_class: see the listing below.
species: Homo sapiens; test: Liver toxicity in human assessed as induction of drug-induced liver injury by measuring severity class index
PARAMETER: DILI_severity_class

1. DALTEPARIN SODIUM; 3
2. BLEOMYCIN; 3
3. IVERMECTIN; 3
4. NYSTATIN; 0
5. BIVALIRUDIN; 0
6. H-SEEPPISLDLTFHLLREVLEMARAEQLAQQAHSNRKMLEII-OH; 0
7. SEVELAMER; 0
8. LANTHANUM CARBONATE; 0
9. VITAMIN E; 0
10. SECRETIN; 0
11. GALLIUM NITRATE; 3
12. CUPRIC CHLORIDE; 0
13. SIMETHICONE; 0
14. VERTEPORFIN; 3
15. POLYMYXIN B SULFATE; 0

---

species: Homo sapiens; experiment: Liver toxicity in human assessed as induction of drug-induced liver injury by measuring severity class index
Below, each entry is listed alongside its reported DILI_severity_class.
PARAMETER: DILI_severity_class

1. CN1C(CCl)Nc2cc(Cl)c(S(N)(=O)=O)cc2S1(=O)=O (stereo not given) [METHYCLOTHIAZIDE]; 2
2. CSc1ccc2c(c1)N(CCC1CCCCN1C)c1ccccc1S2 (stereo not given); 5
3. N=C(N)NC(=O)Cc1c(Cl)cccc1Cl; 3
4. Cc1ccc(C(=O)c2ccc(CC(=O)O)n2C)cc1; 3
5. CC(C)NCC(O)COc1cccc2[nH]ccc12 (stereo not given); 0
6. CC(C)c1cccc(C(C)C)c1OCOP(=O)(O)O; 0
7. Nc1nc2c(ncn2COCCO)c(=O)[nH]1; 5
8. CCC(=O)O[C@](Cc1ccccc1)(c1ccccc1)[C@H](C)CN(C)C; 3
9. Nc1cc(-c2ccncc2)c[nH]c1=O; 5
10. CCC[C@H](N[C@@H](C)C(=O)N1[C@H](C(=O)O)C[C@@H]2CCCC[C@@H]21)C(=O)OCC; 3

---

species: Homo sapiens; experiment: Liver toxicity in human assessed as induction of drug-induced liver injury by measuring verified drug-induced liver injury concern status
PARAMETER: DILI_Concern

1) C=C[C@H]1C[N@@]2CC[C@H]1C[C@H]2[C@H](O)c1ccnc2ccc(OC)cc12; Less-Dili-Concern
2) COc1c2occc2cc2ccc(=O)oc12; Less-Dili-Concern
3) O=C(O)c1cc(-c2ccccc2)nc2ccccc12; Most-Dili-Concern
4) O=NN(CCCl)C(=O)NC1CCCCC1; Less-Dili-Concern
5) Nc1nc(NC2CC2)c2ncn([C@H]3C=C[C@@H](CO)C3)c2n1; Most-Dili-Concern
6) COc1ccnc(C[S+]([O-])c2nc3ccc(OC(F)F)cc3[nH]2)c1OC (centres undefined); Less-Dili-Concern
7) CC(C)NCC(O)COc1cccc2ccccc12 (centres undefined); Ambiguous-Dili-Concern
8) O=C(O)COc1ccc(C(=O)c2cccs2)c(Cl)c1Cl; Most-Dili-Concern
9) COc1cc2nc(N3CCN(C(=O)c4ccco4)CC3)nc(N)c2cc1OC; Ambiguous-Dili-Concern
10) O[C@@H](c1cc(C(F)(F)F)nc2c(C(F)(F)F)cccc12)[C@H]1CCCCN1 [(S,R)-MEFLOQUINE]; Less-Dili-Concern
11) CN(C)CCC[C@@]1(c2ccc(F)cc2)OCc2cc(C#N)ccc21; Less-Dili-Concern
12) CCCCNc1cc(C(=O)O)cc(S(N)(=O)=O)c1Oc1ccccc1 [BUMETANIDE]; Ambiguous-Dili-Concern
13) Oc1ccc(C2CNCCc3c2cc(O)c(O)c3Cl)cc1 (centres undefined); No-Dili-Concern
14) O=C(O)[C@@H](S)[C@@H](S)C(=O)O; Less-Dili-Concern
15) C[C@H]1COc2c(N3CCN(C)CC3)c(F)cc3c(=O)c(C(=O)O)cn1c23.C[C@H]1COc2c(N3CCN(C)CC3)c(F)cc3c(=O)c(C(=O)O)cn1c23.O; Most-Dili-Concern
16) C[C@@H](O[C@H]1OCCN(Cc2n[nH]c(=O)[nH]2)[C@H]1c1ccc(F)cc1)c1cc(C(F)(F)F)cc(C(F)(F)F)c1 [APREPITANT]; Ambiguous-Dili-Concern
17) Nc1ncnc2c1ncn2[C@@H]1O[C@H](CO)[C@@H](O)[C@H]1O; No-Dili-Concern
18) CCN(CC)CCNC(=O)c1cc(Cl)c(N)cc1OC [METOCLOPRAMIDE]; Less-Dili-Concern
19) Clc1ccc2c(c1)C(N1CCNCC1)=Nc1ccccc1O2; Ambiguous-Dili-Concern
